tested on: Wolbachia pipientis; test: Anti-Wolbachia Cell-Based Screen; assay type: functional; parameters: scale not given: in the data most compounds retested in dose-response had high values; conditions: 5 µM
The whole screen tested about 48,000 compounds, of which about 13,000 (27%) showed an effect of 50% or more. Some of the results follow.
RESULT TYPE: Percent Effect (%)
// return numeric value only (unit: %, not printed)

Worked cases, answers included:
INSERT INTO measurements (compound, unit_descriptor, measured_number) VALUES
  ('CCOCC(=O)NCCc1nc(C)cc(C(F)(F)F)n1', '%', 110.5),
  ('CC(=O)N1CCN(c2nc3c(cnn3C(C)(C)C)c(=O)[nH]2)CC1', '%', -9.111);

Please look at this compound and report its Percent Effect: CC(C)c1nc2n(n1)CC(Nc1ncnc3c1CCC3)CC2 (stereo unspecified)
-10.8

Please look at this compound and report its Percent Effect: CS(=O)(=O)N1CCn2c(C(=O)N3CCOCC3)cnc2C1
-13.12

Please look at this compound and report its Percent Effect: CCOCC(=O)NCc1cc(C2CC2)n(C2CCCC2)n1
2.551

Please look at this compound and report its Percent Effect: CC(=O)N1CCCN(C(=O)c2cnn(C(C)(C)C)c2C)CC1
120.5
